- Tested on: NCI-H460
- method summary: NCI tumour cell line growth inhibition, 48 h
Calls of active or inactive are those of the source. Rule as the data show it: active = GI50 up to about 1.1 µM and inactive = higher.
result type: GI50

compound: CCN(CC)C(=S)SCC(=O)Nc1nc2c(s1)CCCC2
result type: GI50
result: 68.9 µM (inactive)
--
compound: COc1ccc2occ(CCC(=O)O)c2c1
result type: GI50
result: > 100 µM (inactive)
--
compound: CCC(=O)OC1CCn2c1nc1c2C(=O)C(C)=C(NC(C)=O)C1=N (stereo unspecified)
result type: GI50
result: 1.47 µM (inactive)
--
compound: CCOC(=O)C1=C(C)NC(=O)NC1c1coc2cc(C)cc(C)c2c1=O (stereo unspecified)
result type: GI50
result: 25.9 µM (inactive)
--
compound: C[Si](C)(C)C(Sc1ccccc1)(Sc1ccccc1)Sc1ccccc1
result type: GI50
result: > 100 µM (inactive)
--
compound: NC(Cc1ccc(N(CCCl)CCCl)cc1)C(=O)NC(CCC(=O)O)C(=O)O (stereo unspecified)
result type: GI50
result: > 100 µM (inactive)
